biological target: Muscarinic acetylcholine receptor; assay: Inhibition of [3H]QNB binding to muscarinic receptor of rat cortex
Each record here notes measured Ki.

# Compound, Qualifying Sign, Ki / µM
measured = [
    ("COC(=O)C1C2CC3CCC1N3C/C2=C\\c1ccc(-c2cccc(OC)c2)cc1 (stereo not given)", "=", 4.06),
    ("COC(=O)C1C2CC3CCC1N3C/C2=C\\C#Cc1ccsc1 (stereo not given)", "=", 2.74),
    ("COC(=O)C1C2CC3CCC1N3C/C2=C\\C#Cc1cc(F)ccc1F (stereo not given)", ">", 10),
    ("COC(=O)C1C2CC[C@@H]3C[C@@H]1/C(=C/c1ccc(-c4ccc(F)c(F)c4)cc1)CN23 (stereo not given in full)", "=", 3.4),
    ("COC(=O)C1C2CC3CCC1N3C/C2=C\\C#Cc1ccc(F)c(F)c1 (stereo not given)", "=", 7.09),
]

---

target: Sodium-dependent serotonin transporter (Rattus norvegicus); assay: Inhibitory constant against reuptake of [3H]5-HT at serotonin transporter of rat […]
Sequence (P31652 whole entry): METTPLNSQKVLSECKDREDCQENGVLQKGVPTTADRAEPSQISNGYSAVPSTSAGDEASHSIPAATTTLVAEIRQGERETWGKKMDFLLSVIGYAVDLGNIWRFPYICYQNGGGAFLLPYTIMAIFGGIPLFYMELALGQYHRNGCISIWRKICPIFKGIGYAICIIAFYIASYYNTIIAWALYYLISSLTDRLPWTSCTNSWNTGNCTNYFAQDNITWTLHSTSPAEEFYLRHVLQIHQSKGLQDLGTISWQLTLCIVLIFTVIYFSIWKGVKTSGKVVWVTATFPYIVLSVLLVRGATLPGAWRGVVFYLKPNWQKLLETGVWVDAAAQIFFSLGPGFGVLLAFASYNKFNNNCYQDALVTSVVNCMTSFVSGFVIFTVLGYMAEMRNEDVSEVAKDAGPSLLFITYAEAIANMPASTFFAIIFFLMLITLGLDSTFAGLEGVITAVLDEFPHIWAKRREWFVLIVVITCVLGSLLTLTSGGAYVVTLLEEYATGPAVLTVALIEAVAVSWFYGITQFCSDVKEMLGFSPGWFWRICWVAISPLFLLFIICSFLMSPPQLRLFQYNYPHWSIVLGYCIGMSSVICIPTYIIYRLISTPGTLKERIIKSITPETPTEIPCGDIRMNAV

# Molecule, Units Of Measure, Ki
measured = [
    ("COC(=O)C1C2CC3CCC1N3C/C2=C\\C#Cc1cc(F)ccc1F (stereo unspecified)", "nM", 215),
    ("COC(=O)C1C2CC3CCC1N3C/C2=C\\c1ccc(-c2ccc(SC)cc2)cc1 (stereo unspecified)", "nM", 1080),
    ("COC(=O)C1C2CC3CCC1N3C/C2=C\\C#Cc1cccs1 (stereo unspecified)", "nM", 142),
    ("COC(=O)C1C2CC3CCC1N3C/C2=C\\c1ccc(-c2ccsc2)s1 (stereo unspecified)", "nM", 32),
    ("COC(=O)C1C2CC3CCC1N3C/C2=C\\C#Cc1ccsc1 (stereo unspecified)", "nM", 86),
    ("COC(=O)C1C2CC3CCC1N3C/C2=C\\c1ccc(-c2cccc(C(F)(F)F)c2)cc1 (stereo unspecified)", "nM", 1170),
]

---

biological target: Norepinephrine transporter (Rattus norvegicus); test: Inhibitory constant against reuptake of [3H]NE at norepinephrine transporter of rat parietal-occipital cortex
pKi: −log10 of the molar value.
Each record here notes measured pKi.

# Compound, Qualifying Sign, pKi
measured = [
    ("COC(=O)C1C2CC3CCC1N3C/C2=C\\c1ccc(-c2ccc(SC)cc2)cc1 (stereo not given)", "=", 7.21),
    ("COC(=O)C1C2CC3CCC1N3C/C2=C\\c1ccc(-c2cccc(F)c2)cc1 (stereo not given)", "=", 8.30),
    ("COC(=O)C1C2CC3CCC1N3C/C2=C\\C#Cc1cc(F)ccc1F (stereo not given)", "=", 5.76),
    ("COC(=O)C1C2CC3CCC1N3C/C2=C\\C#Cc1ccc(C)c(F)c1 (stereo not given)", "=", 7.28),
    ("COC(=O)C1C2CC3CCC1N3C/C2=C\\c1ccc(-c2cccc(C(F)(F)F)c2)cc1 (stereo not given)", "=", 8.06),
    ("COC(=O)C1C2CC[C@@H]3C[C@@H]1/C(=C/c1ccc(-c4ccc(F)c(F)c4)cc1)CN23 (stereo not given in full)", "=", 9.10),
    ("COC(=O)C1C2CC3CCC1N3C/C2=C\\c1ccc(-c2ccsc2)s1 (stereo not given)", "=", 8.23),
    ("COC(=O)C1C2CC[C@@H]3C[C@@H]1/C(=C/c1ccc(-c4cc(F)cc(F)c4)cc1)CN23 (stereo not given in full)", "=", 8.89),
    ("COC(=O)C1C2CC3CCC1N3C/C2=C\\C#Cc1ccccc1 (stereo not given)", "<", 5.00),
    ("COC(=O)C1C2CC3CCC1N3C/C2=C\\c1ccc(-c2ccccc2OC)cc1 (stereo not given)", "=", 8.19),
]

---

Each record here notes measured pKi.
target: Sodium-dependent serotonin transporter (Rattus norvegicus); assay: Inhibitory constant against reuptake of [3H]5-HT at serotonin transporter of rat […]
pKi: −log10 of the molar value.

# Molecule, Tested On, pKi
measured = [
    ("COC(=O)C1C2CC3CCC1N3C/C2=C\\c1ccc(-c2cccc(OC)c2)cc1 (stereo not given)", "Sodium-dependent serotonin transporter (Rattus norvegicus)", 6.46),
    ("COC(=O)C1C2CC3CCC1N3C/C2=C\\c1ccc(-c2ccccc2F)cc1 (stereo not given)", "Sodium-dependent serotonin transporter (Rattus norvegicus)", 6.33),
    ("COC(=O)C1C2CC3CCC1N3C/C2=C\\C#Cc1ccc(C)c(F)c1 (stereo not given)", "Sodium-dependent serotonin transporter (Rattus norvegicus)", 6.04),
    ("COC(=O)C1C2CC3CCC1N3C/C2=C\\c1ccc(-c2ccc(F)cc2)cc1 (stereo not given)", "Sodium-dependent serotonin transporter (Rattus norvegicus)", 5.86),
    ("COC(=O)C1C2CC[C@@H]3C[C@@H]1/C(=C/c1ccc(-c4cc(F)cc(F)c4)cc1)CN23 (stereo not given in full)", "Sodium-dependent serotonin transporter (Rattus norvegicus)", 8.92),
    ("COC(=O)C1C2CC3CCC1N3C/C2=C\\C#Cc1ccccc1 (stereo not given)", "Sodium-dependent serotonin transporter (Rattus norvegicus)", 6.68),
    ("COC(=O)C1C2CC3CCC1N3C/C2=C\\c1ccc(-c2cccc(F)c2)cc1 (stereo not given)", "Sodium-dependent serotonin transporter (Rattus norvegicus)", 6.86),
    ("COC(=O)C1C2CC3CCC1N3C/C2=C\\C#Cc1c(F)cccc1F (stereo not given)", "Sodium-dependent serotonin transporter (Rattus norvegicus)", 7.49),
    ("COC(=O)C1C2CC3CCC1N3C/C2=C\\C#Cc1cccc(F)c1 (stereo not given)", "Sodium-dependent serotonin transporter (Rattus norvegicus)", 6.50),
    ("COC(=O)C1C2CC3CCC1N3C/C2=C\\c1ccc(-c2ccccc2OC)cc1 (stereo not given)", "Sodium-dependent serotonin transporter (Rattus norvegicus)", 5.87),
]

---

target: Norepinephrine transporter (Rattus norvegicus, UniProt Q9WTR4); assay: Inhibitory constant for [3H]NE reuptake at norepinephrine transporter of rat parietal-occipital cortex
Sequence (Q9WTR4 whole entry): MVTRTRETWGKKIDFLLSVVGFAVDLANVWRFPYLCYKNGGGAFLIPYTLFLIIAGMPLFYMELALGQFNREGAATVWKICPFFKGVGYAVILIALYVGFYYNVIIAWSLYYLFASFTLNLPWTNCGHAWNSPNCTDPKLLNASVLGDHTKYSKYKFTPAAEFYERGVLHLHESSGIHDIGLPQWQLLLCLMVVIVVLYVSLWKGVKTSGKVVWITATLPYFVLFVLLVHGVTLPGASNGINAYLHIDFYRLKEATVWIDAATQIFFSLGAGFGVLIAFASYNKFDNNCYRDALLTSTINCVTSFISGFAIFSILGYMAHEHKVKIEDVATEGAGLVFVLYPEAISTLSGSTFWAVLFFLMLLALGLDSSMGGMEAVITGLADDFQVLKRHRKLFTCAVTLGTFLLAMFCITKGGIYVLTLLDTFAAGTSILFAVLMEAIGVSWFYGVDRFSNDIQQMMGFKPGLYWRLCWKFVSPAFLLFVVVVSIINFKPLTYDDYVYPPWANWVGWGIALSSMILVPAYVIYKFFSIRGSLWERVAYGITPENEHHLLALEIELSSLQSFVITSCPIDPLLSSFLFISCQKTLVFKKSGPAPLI
pKi: −log10 of the molar value.
Quantity: pKi

# Compound, Result
rows = [
    ("COC(=O)C1C2CC3CCC1N3C/C2=C\\C#Cc1ccsc1 (stereo unspecified)", 7.66),
]

---

Each record here notes measured Ki.
molecular target: Muscarinic acetylcholine receptor; assay: Inhibition of [3H]QNB binding to muscarinic receptor of rat cortex

# Molecule, Tested On, Ki
records = [
    ("COC(=O)C1C2CC3CCC1N3C/C2=C\\c1ccc(-c2ccccc2F)cc1 (stereo not drawn)", "Muscarinic acetylcholine receptor", "> 10 µM"),
    ("COC(=O)C1C2CC3CCC1N3C/C2=C\\c1ccc(-c2ccc(SC)cc2)cc1 (stereo not drawn)", "Muscarinic acetylcholine receptor", "> 10 µM"),
    ("COC(=O)C1C2CC3CCC1N3C/C2=C\\C#Cc1ccc(C)c(F)c1 (stereo not drawn)", "Muscarinic acetylcholine receptor", "> 10 µM"),
]

---

biological target: Sodium-dependent dopamine transporter (Rattus norvegicus); assay: Inhibitory constant against reuptake of [3H]-DA at dopamine transporter of rat striatal membranes
Sequence (P23977 whole entry): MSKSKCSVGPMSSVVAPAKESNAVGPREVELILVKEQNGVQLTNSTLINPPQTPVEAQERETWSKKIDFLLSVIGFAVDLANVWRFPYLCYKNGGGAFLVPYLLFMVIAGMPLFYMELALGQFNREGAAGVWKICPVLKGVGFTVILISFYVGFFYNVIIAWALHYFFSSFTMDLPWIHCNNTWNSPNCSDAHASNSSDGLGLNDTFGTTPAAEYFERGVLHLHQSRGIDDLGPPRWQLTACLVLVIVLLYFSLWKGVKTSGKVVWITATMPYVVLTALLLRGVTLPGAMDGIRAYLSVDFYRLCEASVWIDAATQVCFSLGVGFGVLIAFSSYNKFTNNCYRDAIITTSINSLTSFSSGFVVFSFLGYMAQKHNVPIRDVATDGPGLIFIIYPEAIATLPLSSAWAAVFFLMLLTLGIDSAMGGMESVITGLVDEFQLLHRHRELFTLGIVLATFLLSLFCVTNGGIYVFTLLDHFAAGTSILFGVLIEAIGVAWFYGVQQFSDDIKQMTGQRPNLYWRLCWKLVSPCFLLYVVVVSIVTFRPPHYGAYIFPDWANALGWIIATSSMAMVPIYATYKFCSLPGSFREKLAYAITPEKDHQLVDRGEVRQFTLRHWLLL
pKi: −log10 of the molar value.
Quantity: pKi

# Compound, Qualifying Sign, Result
rows = [
    ("COC(=O)C1C2CC3CCC1N3C/C2=C\\C#Cc1ccsc1 (stereo unspecified)", "<", 5.00),
    ("COC(=O)C1C2CC3CCC1N3C/C2=C\\C#Cc1cc(F)ccc1F (stereo unspecified)", "<", 5.00),
    ("COC(=O)C1C2CC3CCC1N3C/C2=C\\C#Cc1ccc(F)cc1 (stereo unspecified)", "<", 5.00),
    ("COC(=O)C1C2CC3CCC1N3C/C2=C\\c1ccc(-c2cccc(OC)c2)cc1 (stereo unspecified)", "=", 6.94),
    ("COC(=O)C1C2CC3CCC1N3C/C2=C\\C#Cc1ccccc1 (stereo unspecified)", "<", 5.00),
    ("COC(=O)C1C2CC3CCC1N3C/C2=C\\c1ccc(-c2ccccc2F)cc1 (stereo unspecified)", "=", 5.47),
    ("COC(=O)C1C2CC3CCC1N3C/C2=C\\C#Cc1cccc(F)c1 (stereo unspecified)", "<", 5.00),
    ("COC(=O)C1C2CC[C@@H]3C[C@@H]1/C(=C/c1ccc(-c4ccc(F)c(F)c4)cc1)CN23 (stereo partly specified)", "=", 6.97),
    ("COC(=O)C1C2CC[C@@H]3C[C@@H]1/C(=C/c1ccc(-c4cc(F)cc(F)c4)cc1)CN23 (stereo partly specified)", "=", 6.64),
    ("COC(=O)C1C2CC3CCC1N3C/C2=C\\C#Cc1ccc(C)c(F)c1 (stereo unspecified)", "=", 5.15),
    ("COC(=O)C1C2CC3CCC1N3C/C2=C\\C#Cc1cccs1 (stereo unspecified)", "<", 5.00),
    ("COC(=O)C1C2CC3CCC1N3C/C2=C\\c1ccc(-c2ccc(F)cc2)cc1 (stereo unspecified)", "=", 6.79),
    ("COC(=O)C1C2CC3CCC1N3C/C2=C\\c1ccc(-c2cccc(F)c2)cc1 (stereo unspecified)", "=", 6.19),
    ("COC(=O)C1C2CC3CCC1N3C/C2=C\\C#Cc1c(F)cccc1F (stereo unspecified)", "<", 5.00),
    ("COC(=O)C1C2CC3CCC1N3C/C2=C\\c1ccc(-c2cccc(C(F)(F)F)c2)cc1 (stereo unspecified)", "=", 6.25),
    ("COC(=O)C1C2CC3CCC1N3C/C2=C\\c1ccc(-c2ccsc2)s1 (stereo unspecified)", "=", 6.94),
]
